Target: vcFabH2 (C113A) (Vibrio cholerae serotype O1, UniProt Q9KLJ3, C113A)
Type: binding
The reader will find reported ΔH values listed item by item below.
Give just the numeric value; kcal/mol need not be written.

Look over these answered cases.
CCCC(=O)SCCNC(=O)CCNC(=O)[C@H](O)C(C)(C)COP(=O)(O)OP(=O)(O)OC[C@H]1O[C@@H](n2cnc3c(N)ncnc32)[C@H](O)[C@@H]1OP(=O)(O)O	-8.259
CCCCCCCC(=O)SCCNC(=O)CCNC(=O)[C@H](O)C(C)(C)COP(=O)(O)OP(=O)(O)OC[C@H]1O[C@@H](n2cnc3c(N)ncnc32)[C@H](O)[C@@H]1OP(=O)(O)O	-12.67
CC(C)C(=O)SCCNC(=O)CCNC(=O)[C@H](O)C(C)(C)COP(=O)(O)OP(=O)(O)OC[C@H]1O[C@@H](n2cnc3c(N)ncnc32)[C@H](O)[C@@H]1OP(=O)(O)O	-8.57
CC(C)CC(=O)SCCNC(=O)CCNC(=O)[C@H](O)C(C)(C)COP(=O)(O)OP(=O)(O)OC[C@H]1O[C@@H](n2cnc3c(N)ncnc32)[C@H](O)[C@@H]1OP(=O)(O)O	-9.347
CCCCCC(=O)SCCNC(=O)CCNC(=O)[C@H](O)C(C)(C)COP(=O)(O)OP(=O)(O)OC[C@H]1O[C@@H](n2cnc3c(N)ncnc32)[C@H](O)[C@@H]1OP(=O)(O)O	-11.78

Prompt: Please indicate ΔH recorded for `CCCCCCCCCC(=O)SCCNC(=O)CCNC(=O)[C@H](O)C(C)(C)COP(=O)(O)OP(=O)(O)OC[C@H]1O[C@@H](n2cnc3c(N)ncnc32)[C@H](O)[C@@H]1OP(=O)(O)O`
Completion: -7.457

Prompt: Please indicate ΔH recorded for `CC(=O)SCCNC(=O)CCNC(=O)[C@H](O)C(C)(C)COP(=O)(O)OP(=O)(O)OC[C@H]1O[C@@H](n2cnc3c(N)ncnc32)[C@H](O)[C@@H]1OP(=O)(O)O`
Completion: -14.49

Prompt: Please indicate ΔH recorded for `CCCCCCCCCCCC(=O)SCCNC(=O)CCNC(=O)[C@H](O)C(C)(C)COP(=O)(O)OP(=O)(O)OC[C@H]1O[C@@H](n2cnc3c(N)ncnc32)[C@H](O)[C@@H]1OP(=O)(O)O`
Completion: -6.563

----------
Target: vcFabH2 (C113A) (Vibrio cholerae serotype O1, UniProt Q9KLJ3, C113A)
Type: binding
Decision: ΔS >= -20 cal∙mol^−1∙K^−1 yields yes (1), all other cases yield no (0).

Would you please look over these solved cases?
CCCCCCCCCC(=O)SCCNC(=O)CCNC(=O)[C@H](O)C(C)(C)COP(=O)(O)OP(=O)(O)OC[C@H]1O[C@@H](n2cnc3c(N)ncnc32)[C@H](O)[C@@H]1OP(=O)(O)O	yes (1)
CC(C)CC(=O)SCCNC(=O)CCNC(=O)[C@H](O)C(C)(C)COP(=O)(O)OP(=O)(O)OC[C@H]1O[C@@H](n2cnc3c(N)ncnc32)[C@H](O)[C@@H]1OP(=O)(O)O	yes (1)
CCCCCCCC(=O)SCCNC(=O)CCNC(=O)[C@H](O)C(C)(C)COP(=O)(O)OP(=O)(O)OC[C@H]1O[C@@H](n2cnc3c(N)ncnc32)[C@H](O)[C@@H]1OP(=O)(O)O	no (0)
CC(C)C(=O)SCCNC(=O)CCNC(=O)[C@H](O)C(C)(C)COP(=O)(O)OP(=O)(O)OC[C@H]1O[C@@H](n2cnc3c(N)ncnc32)[C@H](O)[C@@H]1OP(=O)(O)O	yes (1)
CCCC(=O)SCCNC(=O)CCNC(=O)[C@H](O)C(C)(C)COP(=O)(O)OP(=O)(O)OC[C@H]1O[C@@H](n2cnc3c(N)ncnc32)[C@H](O)[C@@H]1OP(=O)(O)O	yes (1)
CCCCCC(=O)SCCNC(=O)CCNC(=O)[C@H](O)C(C)(C)COP(=O)(O)OP(=O)(O)OC[C@H]1O[C@@H](n2cnc3c(N)ncnc32)[C@H](O)[C@@H]1OP(=O)(O)O	no (0)
CC(=O)SCCNC(=O)CCNC(=O)[C@H](O)C(C)(C)COP(=O)(O)OP(=O)(O)OC[C@H]1O[C@@H](n2cnc3c(N)ncnc32)[C@H](O)[C@@H]1OP(=O)(O)O	no (0)

Consider now this further compound.
Prompt: Please check the record `CCCCCCCCCCCC(=O)SCCNC(=O)CCNC(=O)[C@H](O)C(C)(C)COP(=O)(O)OP(=O)(O)OC[C@H]1O[C@@H](n2cnc3c(N)ncnc32)[C@H](O)[C@@H]1OP(=O)(O)O` and state if its ΔS is at or above -20 cal∙mol^−1∙K^−1.
Completion: yes (1)

Cited source for all entries: paper PMC6105497
